All figures here come from patent US8436023B2.

# target or test system: CCR2 (Homo sapiens)
# Sequence (P41597 1-360 isoform P41597-2): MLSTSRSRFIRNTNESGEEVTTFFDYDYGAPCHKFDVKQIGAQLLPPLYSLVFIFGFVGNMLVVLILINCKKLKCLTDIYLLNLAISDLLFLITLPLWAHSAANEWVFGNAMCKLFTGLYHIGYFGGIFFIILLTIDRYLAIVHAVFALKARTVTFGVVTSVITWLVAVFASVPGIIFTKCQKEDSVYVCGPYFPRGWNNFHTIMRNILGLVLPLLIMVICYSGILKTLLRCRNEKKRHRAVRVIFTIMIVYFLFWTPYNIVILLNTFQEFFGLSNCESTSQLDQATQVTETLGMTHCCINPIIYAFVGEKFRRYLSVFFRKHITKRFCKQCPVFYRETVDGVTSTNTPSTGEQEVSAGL
# assay protocol: MCP-1 Receptor Binding Assay in THP-1 Cells
# details: 0.5 nM 125I labeled MCP-1, 2 hours at 30° C., less polar isomer tested where stated, read-out: Inhibition of MCP-1 Binding IC50, CCR2 Binding
readout: IC50 (nM)

Examples with their reported IC50 follow.
CC(C)NC(=O)n1nc(NCC(=O)NC2CN(C3CCC(C4CCCCC4)CC3)C2)c2cc(C(F)(F)F)ccc21 (centres unmarked) [Example 93]: 3100
CCOC(=O)C1CCC(N2CC(NC(=O)CNc3n[nH]c4ccc(C(F)(F)F)cc34)C2)CC1 (centres unmarked) [Example 50]: 27
O=C(CNc1noc2ccc(C(F)(F)F)cc12)NC1CN(C2CCC(O)(c3nccs3)CC2)C1 (centres unmarked) [Example 4]: 31

I. N#CC1CCC(N2CC(NC(=O)CNc3nn(C(N)=O)c4ccc(C(F)(F)F)cc34)C2)CC1 (centres unmarked) [Example 87]
II. CCOC1CCC(N2CC(NC(=O)CNc3nn(C)c4ccc(C(F)(F)F)cc34)C2)CC1 (centres unmarked) [Example 36]
III. COc1ccc(C2(O)CCC(N3CC(NC(=O)CNc4nn(CCO)c5ccc(C(F)(F)F)cc45)C3)CC2)cn1 (centres unmarked) [Example 75]
IV. CCOC(=O)C1CCC(N2CC(NC(=O)CNc3noc4ccc(OC(F)(F)F)cc34)C2)CC1 (centres unmarked) [Example 16]
V. Cc1ccc(C2(O)CCC(N3CC(NC(=O)CNc4nn(C)c5ccc(C(O)C(F)(F)F)cc45)C3)CC2)cn1 (centres unmarked) [Example 63]
Rank by IC50 (largest to smallest). Respond with the label ranking, as requested.
V, I, II, IV, III
(V: 3400 nM, I: 520 nM, II: 228 nM, IV: 71 nM, III: 32 nM)

* * *

# target or test system: CCR2 (Homo sapiens)
# Construct: host or cells: THP-1 human monocytic cells
# assay protocol: MCP-1 Receptor Binding Assay in THP-1 Cells
# details: 0.5 nM 125I labeled MCP-1, 2 hours at 30° C., less polar isomer tested where stated, read-out: Inhibition of MCP-1 Binding IC50, CCR2 Binding
readout: IC50 (nM)

Cn1nc(NCC(=O)NC2CN(C3CCC(c4ccc5c(c4)OCO5)CC3)C2)c2cc(C(O)C(F)(F)F)ccc21 (stereo not drawn) [Example 64]: 300
O=C(CNc1n[nH]c2ccc(C(F)(F)F)cc12)NC1CN(C2CCC(c3ccc4c(c3)OCO4)CC2)C1 (stereo not drawn) [Example 45]: 6.6
O=C(CNc1noc2ccc(OC(F)(F)F)cc12)NC1CN(C2CCC(c3ccc4c(c3)OCO4)CC2)C1 (stereo not drawn) [Example 15]: 10
CC(C)C1CCC(N2CC(NC(=O)CNc3n[nH]c4ccc(C(F)(F)F)cc34)C2)CC1 (stereo not drawn) [Example 52]: 370

A. N#CC1CCC(N2CC(NC(=O)CNc3noc4ccc(C(F)(F)F)cc34)C2)CC1 (stereo not drawn) [Example 13]
B. CCOC(=O)C1CCC(N2CC(NC(=O)CNc3nn(S(C)(=O)=O)c4ccc(C(F)(F)F)cc34)C2)CC1 (stereo not drawn) [Example 99]
// compare: A vs B , metric IC50, want the smaller # answer = label of selected item
B
